// data source = patent US20240246964A1

The entries below come with measured pEC50 values attached.
Target: human PD-L1 (Homo sapiens (Human))
Sequence (Q9NZQ7 19-290): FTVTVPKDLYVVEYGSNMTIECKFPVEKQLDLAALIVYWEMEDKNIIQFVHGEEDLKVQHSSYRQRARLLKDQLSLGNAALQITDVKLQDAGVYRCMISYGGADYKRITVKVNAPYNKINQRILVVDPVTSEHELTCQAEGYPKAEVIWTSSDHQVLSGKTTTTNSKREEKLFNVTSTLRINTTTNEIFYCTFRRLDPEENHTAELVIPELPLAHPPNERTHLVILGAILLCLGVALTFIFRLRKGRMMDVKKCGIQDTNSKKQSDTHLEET
Experiment: T cell activation luciferase reporter cell culture system (T Cell Activation Assay)
Assay type: cell-based
Conditions: luciferase reporter assay; PD-L1 aAPC/CHO-K1 cells with PD-1 effector Jurkat T cells
Scale for pEC50: -log10 of concentration given in mol/L; no unit attached.

Consider the worked cases shown below.
COc1nc(-c2cccc(-c3ccnc(-c4ccc5c(CNC[C@H](C)O)cn(C)c5c4)c3Cl)c2Cl)ccc1CNC[C@@H]1CCC(=O)N1 ... 6.07
COc1cc(-c2nccc(-c3cccc(-c4ccc(CN(C)C5CCN(C(C)=O)CC5)c(OC)n4)c3Cl)c2Cl)ccc1CNC1CCOCC1 ... 7.10
COc1nc(-c2cccc(-c3ccnc(-c4cc(OC)c5nc(CNC6CC7(COC7)C6)cn5c4)c3Cl)c2Cl)ccc1CNC[C@@H]1CCC(=O)N1 ... 7.19
COc1cc(-c2ncnc(-c3cccc(-c4ccc(CN5CC6(CNC(=O)C6)C5)c(OC)n4)c3Cl)c2Cl)ccc1CN1CC2(CNC(=O)C2)C1 ... 6.99
COc1nc(-c2cncc(-c3cccc(NC(=O)c4cn(C)c(=O)n(C)c4=O)c3Cl)c2Cl)ccc1CNC[C@H](C)O ... 6.19
COc1cc(-c2nccc(-c3cccc(-c4ccc(CNC[C@@H]5CCC(=O)N5)c(OC)n4)c3Cl)c2Cl)ccc1CNC[C@@H]1CCC(=O)N1 ... 7.82

Data request: # get_value(readout= pEC50, system= human PD-L1 (Homo sapiens (Human))) for COc1nc(-c2cccc(-c3ccnc(-c4cc(OC)c5nc(CN6CCOCC6)cn5c4)c3Cl)c2Cl)ccc1CNC1CCN(C(C)=O)CC1
Data returned: 5.42

Data request: # get_value(readout= pEC50, system= human PD-L1 (Homo sapiens (Human))) for COc1nc(-c2ccnc(-c3cccc4c3CC[C@@H]4Oc3nc(OC)c(CNC[C@H](C)O)cc3C(F)(F)F)c2Cl)ccc1CN1CC2(CNC(=O)C2)C1
Data returned: 7.28

Data request: # get_value(readout= pEC50, system= human PD-L1 (Homo sapiens (Human))) for CNCc1ccc(-c2cccc(-c3ccnc(-c4ccc(CNCCC(=O)OC(C)C)c(OC)c4)c3Cl)c2Cl)nc1OC
Data returned: 6.65

Data request: # get_value(readout= pEC50, system= human PD-L1 (Homo sapiens (Human))) for CNCc1ccc(C(=O)Nc2cccc(-c3ccnc(-c4ccc(CNC[C@@H]5CCC(=O)N5)c(OC)c4)c3Cl)c2C)nc1
Data returned: 7.20

Data request: # get_value(readout= pEC50, system= human PD-L1 (Homo sapiens (Human))) for CNCc1ccc(-c2cccc(-c3ccnc(-c4ccc(CN5CC[C@H](C(=O)O)C5)c(OC)c4)c3Cl)c2Cl)nc1OC
Data returned: 7.20

Data request: # get_value(readout= pEC50, system= human PD-L1 (Homo sapiens (Human))) for COc1cc(-c2nccc(-c3ccnc(-c4ccc(CNC[C@@H]5CCC(=O)N5)c(OC)c4)c3Cl)c2Cl)ccc1CNC[C@@H]1CCC(=O)N1
Data returned: 7.02

Data request: # get_value(readout= pEC50, system= human PD-L1 (Homo sapiens (Human))) for COc1cc(-c2nccc(-c3cccc(-c4ccc(CNC5CCN(C(=O)N(C)C)CC5)c(OC)n4)c3Cl)c2Cl)ccc1CNC1CCN(C(=O)N(C)C)CC1
Data returned: 7.71

Data request: # get_value(readout= pEC50, system= human PD-L1 (Homo sapiens (Human))) for COc1cc(-c2nccc(-c3cccc(-c4ccc(CN5CCC(NC(C)=O)CC5)c(OC)n4)c3Cl)c2Cl)ccc1CNC1CCN(C(C)=O)CC1
Data returned: 7.64

Data request: # get_value(readout= pEC50, system= human PD-L1 (Homo sapiens (Human))) for COc1cc(-c2ncnc(-c3cccc(-c4ccc(CN[C@H]5C[C@@H](O)C5)c(OC)n4)c3Cl)c2Cl)ccc1CN1CC2(CNC(=O)C2)C1
Data returned: 6.96

Data request: # get_value(readout= pEC50, system= human PD-L1 (Homo sapiens (Human))) for COc1cc(-c2nccc(-c3cccc(-c4ccc(CNC5CCN(C(=O)C6CC6)CC5)c(OC)n4)c3Cl)c2Cl)ccc1CNC1CCN(C(=O)C2CC2)CC1
Data returned: 7.49

Data request: # get_value(readout= pEC50, system= human PD-L1 (Homo sapiens (Human))) for COc1nc(-c2cccc(-c3ccnc(-c4ccc5c(CN(C)C)cn(C)c5c4)c3Cl)c2Cl)ccc1CNC[C@@H]1CCC(=O)N1
Data returned: 6.65

Data request: # get_value(readout= pEC50, system= human PD-L1 (Homo sapiens (Human))) for COC(=O)CCN1CCc2cc(-c3nccc(-c4cccc(-c5ccc(CN6CC7(CNC(=O)C7)C6)c(OC)n5)c4Cl)c3Cl)cc(OC)c2C1
Data returned: 6.94

Data request: # get_value(readout= pEC50, system= human PD-L1 (Homo sapiens (Human))) for COc1cc(-c2nccc(-c3cccc(-c4ccc(CN5CC6(CCN(C(C)=O)C6)C5)c(OC)n4)c3Cl)c2Cl)ccc1CN1CCC(O)CC1
Data returned: 7.36

Data request: # get_value(readout= pEC50, system= human PD-L1 (Homo sapiens (Human))) for COc1cc(-c2nccc(-c3cccc(-c4ccc5c(CNC6CCN(C(C)=O)CC6)cn(C)c5n4)c3Cl)c2Cl)ccc1CNC1CCN(C(C)=O)CC1
Data returned: 7.00
